Ref: patent US20210246204A1

target: human Siglec-7 on primary human monocyte-derived dendritic cells (human, UniProt Q9Y286 19-467); test: cell-based or functional assay
Sequence (Q9Y286 19-467): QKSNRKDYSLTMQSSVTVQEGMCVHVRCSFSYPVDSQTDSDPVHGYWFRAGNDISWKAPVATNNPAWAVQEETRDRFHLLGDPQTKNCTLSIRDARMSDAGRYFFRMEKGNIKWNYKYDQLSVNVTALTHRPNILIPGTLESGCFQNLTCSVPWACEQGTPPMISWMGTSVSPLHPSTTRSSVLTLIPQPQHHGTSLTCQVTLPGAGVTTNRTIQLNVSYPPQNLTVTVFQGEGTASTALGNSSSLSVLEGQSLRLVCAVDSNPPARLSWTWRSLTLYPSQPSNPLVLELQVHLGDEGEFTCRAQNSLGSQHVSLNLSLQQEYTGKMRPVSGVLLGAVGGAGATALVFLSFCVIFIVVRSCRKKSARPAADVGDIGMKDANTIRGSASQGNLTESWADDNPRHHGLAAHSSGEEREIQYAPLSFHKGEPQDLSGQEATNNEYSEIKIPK
endpoint.label: Receptor downregulation, (EC50) (pM)
Form entry: value (pM) — number only.

The examples below pair each entry with its known result.
S7AB-H8.9.1 (antibody, V domains shown) VH: QVQLVQSGAEVKKPGASVKVSCKASGYAFTAAWMNWVRQAPGQRLEWIGRIFPGLGHTNYAQKFQGRATLTEDTSTSTAYMELSSLRSEDTAVYYCARDYSDYYFDYWGQGTLVTVSS VL: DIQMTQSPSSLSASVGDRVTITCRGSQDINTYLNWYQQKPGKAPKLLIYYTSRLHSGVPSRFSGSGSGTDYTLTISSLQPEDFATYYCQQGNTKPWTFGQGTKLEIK    103
S7AB-H8.41 (antibody, V domains shown) VH: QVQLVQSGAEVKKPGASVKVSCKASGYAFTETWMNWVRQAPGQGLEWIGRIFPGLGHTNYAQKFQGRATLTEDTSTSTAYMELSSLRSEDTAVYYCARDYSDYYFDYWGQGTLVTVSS VL: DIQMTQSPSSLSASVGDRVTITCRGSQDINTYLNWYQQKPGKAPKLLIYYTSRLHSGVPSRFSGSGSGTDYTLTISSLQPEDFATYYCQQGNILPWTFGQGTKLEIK    108
S7AB-H8.8 (antibody, V domains shown) VH: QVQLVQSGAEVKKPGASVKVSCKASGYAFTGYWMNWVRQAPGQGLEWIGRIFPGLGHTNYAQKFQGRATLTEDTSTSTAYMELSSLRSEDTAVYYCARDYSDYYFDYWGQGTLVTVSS VL: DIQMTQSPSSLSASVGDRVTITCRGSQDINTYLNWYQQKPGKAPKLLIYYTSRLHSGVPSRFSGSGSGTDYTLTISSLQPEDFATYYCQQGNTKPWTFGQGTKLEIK    89.8
S7AB-H8.3 (antibody, V domains shown) VH: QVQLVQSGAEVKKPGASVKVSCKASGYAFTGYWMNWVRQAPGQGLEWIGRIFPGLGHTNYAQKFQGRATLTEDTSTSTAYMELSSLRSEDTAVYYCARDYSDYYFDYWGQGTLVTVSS VL: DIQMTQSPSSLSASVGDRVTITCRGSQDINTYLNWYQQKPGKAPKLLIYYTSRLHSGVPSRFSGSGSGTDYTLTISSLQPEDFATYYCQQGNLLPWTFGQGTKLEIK    89.2
S7AB-H8.34.2 (antibody, V domains shown) VH: QVQLVQSGAEVKKPGASVKVSCKASGYAFTAAWMNWVRQARGQRLEWIGRIFPGLGHTNYAQKFQGRATLTEDTSTSTAYMELSSLRSEDTAVYYCARDYSDYYFDYWGQGTLVTVSS VL: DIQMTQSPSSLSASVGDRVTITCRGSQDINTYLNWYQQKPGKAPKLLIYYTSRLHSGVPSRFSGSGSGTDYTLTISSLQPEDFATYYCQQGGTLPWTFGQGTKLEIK    110
S7AB-H8.7 (antibody, V domains shown) VH: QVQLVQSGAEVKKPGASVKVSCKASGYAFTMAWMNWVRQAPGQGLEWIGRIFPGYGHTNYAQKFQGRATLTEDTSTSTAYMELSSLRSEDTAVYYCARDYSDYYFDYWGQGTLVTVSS VL: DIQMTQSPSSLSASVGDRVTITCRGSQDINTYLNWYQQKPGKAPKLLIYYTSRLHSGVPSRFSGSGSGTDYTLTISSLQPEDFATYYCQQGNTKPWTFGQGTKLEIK    84.7

Given the binder S7AB-H8.29.2 (antibody, V domains shown) VH: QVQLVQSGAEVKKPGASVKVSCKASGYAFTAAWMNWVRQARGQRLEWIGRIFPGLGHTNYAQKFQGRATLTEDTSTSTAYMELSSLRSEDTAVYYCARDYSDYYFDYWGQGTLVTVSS VL: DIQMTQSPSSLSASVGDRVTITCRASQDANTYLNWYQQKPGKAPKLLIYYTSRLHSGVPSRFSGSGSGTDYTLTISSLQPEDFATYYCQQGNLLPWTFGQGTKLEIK , what is its reported Receptor downregulation, (EC50) (pM)?
88.9

Given the binder S7AB chimeric antibody (antibody, V domains shown) VH: QVHLQQSGPELVKPGASVKISCKASGYAFTNCWMNWVRQRPGKGLDWIGRIFPGNGHTNYSGKFKDKATLTEDKSSSTAYMQLSSLTSEDSAVYFCARDYSDYYFDYWGQGTTLTVSS VL: DVQMTQTTSSLSASLGDRVTISCRASQDINTYLNWYQQKPDGTVKLLIYYTSRLHSGVPSRFSGSGSGTDYSLTISNLEQEDIATYFCQQGNTLPWTFGGGTKLEIK , what is its reported Receptor downregulation, (EC50) (pM)?
1024

Given the binder S7AB-H8.34.1 (antibody, V domains shown) VH: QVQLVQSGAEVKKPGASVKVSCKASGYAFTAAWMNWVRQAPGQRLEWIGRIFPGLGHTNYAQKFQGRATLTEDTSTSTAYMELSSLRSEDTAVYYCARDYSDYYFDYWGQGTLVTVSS VL: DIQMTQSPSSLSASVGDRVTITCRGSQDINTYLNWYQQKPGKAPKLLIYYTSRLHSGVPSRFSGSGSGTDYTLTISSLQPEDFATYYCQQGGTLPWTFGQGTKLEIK , what is its reported Receptor downregulation, (EC50) (pM)?
99.5

Given the binder S7AB-H8.35.1 (antibody, V domains shown) VH: QVQLVQSGAEVKKPGASVKVSCKASGYAFTEAWMNWVRQAPGQRLEWIGRIFPGYGHTNYAQKFQGRATLTEDTSTSTAYMELSSLRSEDTAVYYCARDYSDYYFDYWGQGTLVTVSS VL: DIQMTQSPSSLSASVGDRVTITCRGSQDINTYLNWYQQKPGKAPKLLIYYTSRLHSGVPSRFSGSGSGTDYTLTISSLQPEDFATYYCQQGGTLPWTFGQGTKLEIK , what is its reported Receptor downregulation, (EC50) (pM)?
184
